Where do these numbers come from? They come from patent US20260130395A1.

- ASSAY: Stability of cannabinoid compounds and Vitamin E components in Beverage 1 (AB White) by LCMSMS
- Assay type: physicochemical
- TEST CONDITIONS: AB White stored at 8° C.; 9 days
OUTCOME MEASURE: Stability of Plant-Derived Cannabinoid Compounds in AB White, 8° C.
Record the result as number plus unit.

Sample answers from the record:
CCCCCc1cc(O)c2c(c1)OC(C)(C)c1ccc(C)cc1-2 [CBN, cannabinol]; 2.76 µg/mL
C=C(C)[C@@H]1CCC(C)=C[C@H]1c1c(O)cc(CCCCC)cc1O [CBD, cannabidiol, reference compound]; 28.44 µg/mL
CCCCCc1cc2c(c(O)c1C(=O)O)[C@@H]1C=C(C)CC[C@H]1C(C)(C)O2 [D9 THCA, delta-9-tetrahydrocannabinolic acid]; 0.937 µg/mL
C=C(C)[C@@H]1CCC(C)=C[C@H]1c1c(O)cc(CCC)cc1O [CBDV, cannabidivarin]; 0.146 µg/mL
CCCc1cc(O)c2c(c1)OC(C)(C)[C@@H]1CCC(C)=C[C@@H]21 [THCV, delta-9-tetrahydrocannabivarin]; 3.61 µg/mL
CCCCCc1cc(O)c2c(c1)OC1(C)CCC3C1C2C3(C)C (stereo not shown) [CBL, cannabicyclol]; 0.535 µg/mL
CCCCCc1cc(O)c(C/C=C(\C)CCC=C(C)C)c(O)c1 [CBG, cannabigerol]; 4.89 µg/mL
C=C(C)[C@@H]1CCC(C)=C[C@H]1c1c(O)cc(CCCCC)c(C(=O)O)c1O [CBDA, cannabidiolic acid]; 1.73 µg/mL
CCCCCc1cc(O)c2c(c1)OC(C)(CCC=C(C)C)C=C2 (stereo not shown) [CBC, cannabichromene]; 0.319 µg/mL

# ---- query molecule ----
Q: Reported Stability of Plant-Derived Cannabinoid Compounds in AB White, 8° C., molecule CCCCCc1cc(O)c2c(c1)OC(C)(C)[C@@H]1CCC(C)=C[C@@H]21 [D9 THC, delta-9-tetrahydrocannabinol, reference compound] : ____
A: 12.14 µg/mL
